# credit: paper PMC3711439

subject-of-test: PU.1 (human, UniProt P17947 1-270)
assay-method-text: MST; MST: 20 mM Tris-HCl pH 7.6, 1.5 mM MgCl2, 0.5 mM EGTA, 10% glycerol, 300 mM KCl, 10 mM DTT, 25 C; 50 nM Cy3-dsDNA, PU.1 1:1 dilutions from 23 uM
condition-label: protein: recombinant; tags: N-terminal His-tag; label: Cy3 on upper strand
Measured pKd, listed per entry for reference.
# pKd is unitless: minus log10 of the molar concentration; print number only

PU.1 motif oligo 9 (dsDNA) DNA 1: ACGTCACTTCCTCTCAACGT DNA 2: ACGTTGAGAGGAAGTGACGT
6.17
PU.1 motif oligo 19 (dsDNA) DNA 1: ACGTCAGTTCCTCTTCACGT DNA 2: ACGTGAAGAGGAACTGACGT
6.23
PU.1 motif oligo 74 (dsDNA) DNA 1: ACGTCTCTTCCTTAAAACGT DNA 2: ACGTTTTAAGGAAGAGACGT
5.94
PU.1 motif oligo 25 (dsDNA) DNA 1: ACGTCACTTCCGCTTCACGT DNA 2: ACGTGAAGCGGAAGTGACGT
6.21
PU.1 motif oligo 42 (dsDNA) DNA 1: ACGTCACTTCCGCCTCACGT DNA 2: ACGTGAGGCGGAAGTGACGT
6.18
PU.1 motif oligo 3 (dsDNA) DNA 1: ACGTCACTTCCCCTTTACGT DNA 2: ACGTAAAGGGGAAGTGACGT
6.34
PU.1 motif oligo 52 (dsDNA) DNA 1: ACGTGCCTTCCTCTTTACGT DNA 2: ACGTAAAGAGGAAGGCACGT
6.05
PU.1 motif oligo 54 (dsDNA) DNA 1: ACGTCTCTTCCTTTCTACGT DNA 2: ACGTAGAAAGGAAGAGACGT
5.77
PU.1 motif oligo 1 (dsDNA) DNA 1: ACGTCACTTCCTCTTTACGT DNA 2: ACGTAAAGAGGAAGTGACGT
6.78
PU.1 motif oligo 23 (dsDNA) DNA 1: ACGTCACTTCCCCAAAACGT DNA 2: ACGTTTTGGGGAAGTGACGT
6.44

Qu. Look up pKd of PU.1 motif oligo 5 (dsDNA) DNA 1: ACGTCACTTCCTCTCTACGT DNA 2: ACGTAGAGAGGAAGTGACGT and report it.
Ans. 6.57

Qu. Look up pKd of PU.1 motif oligo 44 (dsDNA) DNA 1: ACGTCACTTCTCTTTTACGT DNA 2: ACGTAAAAGAGAAGTGACGT and report it.
Ans. 6.11

Qu. Look up pKd of PU.1 motif oligo 60 (dsDNA) DNA 1: ACGTCGCTTCCTTCCTACGT DNA 2: ACGTAGGAAGGAAGCGACGT and report it.
Ans. 5.72
